Value source: patent US20050070480A1

target system: UniProt P00750
Sequence (P00750 36-562, species assumed): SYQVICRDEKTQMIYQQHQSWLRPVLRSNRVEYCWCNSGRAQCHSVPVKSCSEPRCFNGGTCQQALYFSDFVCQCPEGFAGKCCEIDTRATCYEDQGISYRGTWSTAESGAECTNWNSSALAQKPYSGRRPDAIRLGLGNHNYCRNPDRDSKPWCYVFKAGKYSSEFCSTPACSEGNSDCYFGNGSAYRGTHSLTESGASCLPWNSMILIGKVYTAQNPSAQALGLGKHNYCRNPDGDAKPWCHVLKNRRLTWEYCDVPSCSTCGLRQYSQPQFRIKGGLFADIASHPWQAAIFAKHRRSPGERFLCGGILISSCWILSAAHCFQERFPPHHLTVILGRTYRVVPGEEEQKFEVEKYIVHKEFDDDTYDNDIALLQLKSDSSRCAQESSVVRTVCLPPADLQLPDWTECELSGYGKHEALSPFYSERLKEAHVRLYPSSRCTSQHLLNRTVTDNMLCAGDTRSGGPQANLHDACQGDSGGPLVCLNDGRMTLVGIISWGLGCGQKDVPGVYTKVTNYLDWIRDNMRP
Non-standard residues stand in square brackets, D forms with d. Residues, ends and D or L forms follow the SMILES beside them. dNMeChg = CN[C@@H](C(=O)O)C1CCCCC1; Aze = O=C(O)[C@@H]1CCN1
pIC50 values, listed per item
# pIC50: negative log10 of molar concentration; output just the value

Use the examples below as a reference point.
{"compound": "CCOC(=O)N[C@H](CC1CCCCCC1)C(=O)N1CCC[C@H]1C(=O)N[C@H](C=O)CCCNC(=N)N [Compound 1]", "pIC50": 5.00}
{"compound": "CN[C@H](CC1CCCCCC1)C(=O)N1CCC[C@H]1C(=O)N[C@H](C=O)CCCNC(=N)N [Compound 2]", "pIC50": 4.85}
{"compound": "CN[C@H](Cc1ccccc1)C(=O)N1CCC[C@H]1C(=O)N[C@H](C=O)CCCN=C(N)N [C, D-MePhe-Pro-Arg-H, reference compound]", "pIC50": 3.88}
{"compound": "N=C(N)NCCC[C@@H](C=O)NC(=O)[C@@H]1CCCN1C(=O)[C@H](O)C1CCCCCC1 [Compound C1, reference compound]", "pIC50": 4.13}

[in] Entry under review: CN[C@@H](C(=O)N1CC[C@H]1C(=O)N[C@H](C=O)CCCNC(=N)N)C1CCCCC1 [Compound 4] (H-[dNMeChg]-[Aze]-Arg-aldehyde) . Reported pIC50?
[out] 4.92

[in] Entry under review: N=C(N)NCCC[C@@H](C=O)NC(=O)[C@@H]1CCCN1C(=O)[C@H](O)CC1CCCCCC1 [Compound 3] . Reported pIC50?
[out] 5.00
